Target: MMACHC-wt (Homo sapiens, UniProt Q9Y4U1)
Construct: His-tag (N, cleaved yes); made in house; host or cells: E. coli BL21 DE3
Sequence (Q9Y4U1 whole entry): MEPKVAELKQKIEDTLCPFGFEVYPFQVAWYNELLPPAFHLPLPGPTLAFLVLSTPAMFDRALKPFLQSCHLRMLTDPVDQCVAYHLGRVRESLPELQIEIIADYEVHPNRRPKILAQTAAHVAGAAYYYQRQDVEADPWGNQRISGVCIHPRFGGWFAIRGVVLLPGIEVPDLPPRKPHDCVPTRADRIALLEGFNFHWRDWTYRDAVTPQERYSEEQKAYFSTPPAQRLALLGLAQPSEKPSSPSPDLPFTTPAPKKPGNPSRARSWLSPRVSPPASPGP
Test: Differential scanning fluorimetry (DSF), stabilization by cobalamins
Assay type: binding
Conditions: half-maximal effective ligand concentration for stabilization, 3 μM protein, fit of ΔTm vs ligand concentration
MEASUREMENT_LABEL: AC50 (µM)
Give bare numbers, in µM.

Query string: Reported AC50 for C/C1=C2/[N-][C@H]([C@H](CC(N)=O)[C@@]2(C)CCC(=O)NC[C@@H](C)OP(=O)([O-])O[C@H]2[C@@H](O)[C@@H](n3cnc4cc(C)c(C)cc43)O[C@@H]2CO)[C@]2(C)N=C(/C(C)=C3N=C(/C=C4N=C1[C@@H](CCC(N)=O)C\4(C)C)[C@@H](CCC(N)=O)[C@]\3(C)CC(N)=O)[C@@H](CCC(N)=O)[C@]2(C)CC(N)=O.[Co+3].[OH-] [OHCbl, Hydroxocobalamin] : what is it?
Result string: 3

* * *

Experiment: UV-visible absorption spectra of free cobalamin
Format: physicochemical
Settings: base-on, wavelength
MEASUREMENT_LABEL: γ-Peak
Note: state the figure and append the unit.

Query string: Reported γ-Peak for C/C1=C2/[N-][C@H]([C@H](CC(N)=O)[C@@]2(C)CCC(=O)NC[C@@H](C)OP(=O)([O-])O[C@H]2[C@@H](O)[C@@H](n3cnc4cc(C)c(C)cc43)O[C@@H]2CO)[C@]2(C)N=C(/C(C)=C3N=C(/C=C4N=C1[C@@H](CCC(N)=O)C\4(C)C)[C@@H](CCC(N)=O)[C@]\3(C)CC(N)=O)[C@@H](CCC(N)=O)[C@]2(C)CC(N)=O.[Co+3].[OH-] [OHCbl, Hydroxocobalamin] : what is it?
Result string: 350 nm

* * *

Molecular target: MMACHC-wt (Homo sapiens)
Construct: His-tag (N, cleaved yes); made in house; host or cells: E. coli BL21 DE3
Assay: Differential scanning fluorimetry (DSF), stabilization by cobalamins
Format: binding
Details: half-maximal effective ligand concentration for stabilization, 3 μM protein, fit of ΔTm vs ligand concentration
MEASUREMENT_LABEL: AC50 (µM)
Give bare numbers, in µM.

Examples from the recorded data:
compound=C/C1=C2/[N-][C@H]([C@H](CC(N)=O)[C@@]2(C)CCC(=O)NC[C@H](C)OP(=O)([O-])O[C@H]2[C@@H](O)[C@@H](n3cnc4cc(C)c(C)cc43)O[C@@H]2CO)[C@]2(C)N=C(/C(C)=C3N=C(/C=C4N=C1[C@@H](CCC(N)=O)C\4(C)C)[C@@H](CCC(N)=O)[C@]\3(C)CC(N)=O)[C@@H](CCC(N)=O)[C@]2(C)CC(N)=O.[CH3-].[Co+3] measurement_label=AC50 number=2.1
compound="CC1=C2N=C(C=C3N=C(C(C)=C4[N-]C(C(CC(N)=O)C4(C)CCC(=O)NCC(C)OP(=O)([O-])OC4C(CO)OC(n5cnc6cc(C)c(C)cc65)C4O)C4(C)N=C1C(CCC(N)=O)C4(C)CC(N)=O)C(CCC(N)=O)C3(C)C)C(CCC(N)=O)C2(C)CC(N)=O.[CH2-]C1OC(n2cnc3c(N)ncnc32)C(O)C1O.[Co+3] (stereo not drawn)" measurement_label=AC50 number=0.9

Query string: Reported AC50 for C/C1=C2/[N-]C([C@H](CC(N)=O)[C@@]2(C)CCC(=O)NCC(C)O)[C@]2(C)N=C(/C(C)=C3N=C(/C=C4N=C1[C@@H](CCC(N)=O)C\4(C)C)[C@@H](CCC(N)=O)[C@]\3(C)CC(N)=O)[C@@H](CCC(N)=O)[C@]2(C)CC(N)=O.[C-]#N.[C-]#N.[Co] (stereo partly drawn) [Cbi, dicyanocobinamide] : what is it?
Result string: 1.3
